details: in ethyl acetate, 318.25 K
assay readout: solubility (mole fraction)

Look up and report measured solubility (mole fraction) for this entry: "C[C@@H]1OC(=O)[C@H](C)OC1=O"
0.311

###

conditions: in toluene, 298.35 K
assay readout: solubility (mole fraction)
Numbers only.

Let me know recorded solubility (mole fraction) for "C[C@@H]1OC(=O)[C@H](C)OC1=O" , thanks.
0.0371

###

conditions: in acetone, 294.65 K
assay readout: solubility (mole fraction)
Give bare numbers.

Report measured solubility (mole fraction); entry is "C[C@@H]1OC(=O)[C@H](C)OC1=O"
0.283

###

conditions: in acetone, 328.25 K
assay readout: solubility (mole fraction)
One number for each entry.

Quickly give me recorded solubility (mole fraction) for "C[C@@H]1OC(=O)[C@H](C)OC1=O"
0.49
